# Target under test: hCB1 (Homo sapiens)
# Sequence (P21554 whole entry): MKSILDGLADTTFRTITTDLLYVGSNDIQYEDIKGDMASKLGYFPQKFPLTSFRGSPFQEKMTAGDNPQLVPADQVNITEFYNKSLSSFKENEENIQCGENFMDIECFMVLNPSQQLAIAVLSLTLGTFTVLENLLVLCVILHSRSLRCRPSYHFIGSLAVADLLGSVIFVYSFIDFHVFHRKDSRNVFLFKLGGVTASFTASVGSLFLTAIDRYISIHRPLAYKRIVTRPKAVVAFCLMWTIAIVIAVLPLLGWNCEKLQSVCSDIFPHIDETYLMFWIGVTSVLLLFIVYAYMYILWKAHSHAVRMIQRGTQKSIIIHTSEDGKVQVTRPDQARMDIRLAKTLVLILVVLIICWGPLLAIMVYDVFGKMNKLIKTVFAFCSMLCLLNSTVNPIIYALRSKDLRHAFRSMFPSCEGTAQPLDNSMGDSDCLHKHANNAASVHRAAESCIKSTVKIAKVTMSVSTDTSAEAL
# Assay explanation: Agonism of CB1 receptors expressed in CHO cells, forskolin cAMP assay (Protocol IX.2)
# Type: cell-based
# Set-up: expressed in transfected cells; host or cells: CHO (h-CB1/CHO, G418-selected)
# Condition info: CHO, at 10 uM, h-CB1/CHO cells, cAMP
activation at 10 µM values for the compounds below.
Express your answer in %, writing the number without its unit.

Example entries begin here.
- O=C(NCc1ccccc1)c1n[nH]c2c1C1CC3CC(CC2C3)C1: 29.4
- O=C(NNc1ncccc1Cl)c1nn(-c2ccc(Cl)cc2)c2c1C1CC3CC(C1)CC2C3: 75.6
- O=C(NNc1ccccc1Br)c1nn(-c2ccc(Cl)cc2Cl)c2c1C1CCC2C1 (centres unmarked): 16.2
- O=C(NNc1cccc(F)c1)c1nn(-c2ccc(Cl)cc2Cl)c2c1C1CCC2C1 (centres unmarked): 12.1
- O=C(N[C@@H](CO)c1ccccc1)c1nn(-c2ccc(F)cc2F)c2c1C1CCC2C1 (some centres unmarked): 29.1
- O=C(NCc1ccc(F)cc1F)c1nn(-c2ccc(Cl)cc2Cl)c2c1C1CCC2C1 (centres unmarked): 0
- O=C(NCc1ccccc1Cl)c1nn(-c2ccc(F)cc2F)c2c1C1CC3CC(C1)CC2C3: 79.9

# input for lookup
Please report activation at 10 µM with hCB1 (Homo sapiens) for item O=C(NC(CO)c1ccccc1)c1nn(-c2ccc(F)cc2F)c2c1C1CCC2C1 (centres unmarked) .
19
